Protocol Text: in vivo
Condition Set: rat, ip
Measured Quantity: selectivity ratio

Given the compound COc1ccc2[nH]c3c(c2c1)CC(c1ccccc1)CC3 (stereo not shown) , write its reported selectivity ratio.
50 to 500

* * *

Protocol Text: in vivo
Set-up: species or system beagles
Condition Set: dog, po
Measured Quantity: NOAEL at 6 h

In one line, give reported NOAEL at 6 h of the entry COc1ccc2[nH]c3c(c2c1)CC(c1ccccc1)CC3 (stereo not shown) .
> 60 mg/kg
